Test: Stability of cannabinoid compounds and Vitamin E components in Beverage 1 (AB White) by LCMSMS
Assay type: physicochemical
Settings: AB White stored at 21-25° C.; 24 days
reportedProperty: Stability of Plant-Derived Cannabinoid Compounds in AB White, 21-25° C. (µg/mL)
Respond with the bare value in µg/mL.

Q: Value lookup for Stability of Plant-Derived Cannabinoid Compounds in AB White, 21-25° C.; key = CCCCCc1cc2c(c(O)c1C(=O)O)[C@@H]1C=C(C)CC[C@H]1C(C)(C)O2 [D9 THCA, delta-9-tetrahydrocannabinolic acid]
Result: 0.927

Q: // same read-out, input: C=C(C)[C@@H]1CCC(C)=C[C@H]1c1c(O)cc(CCC)cc1O
Result: 0.145

Q: // same read-out, input: CCCCCc1cc(O)c2c(c1)OC1(C)CCC3C1C2C3(C)C (stereo not drawn)
Result: 0.546

Q: // same read-out, input: CCCc1cc(O)c2c(c1)OC(C)(C)[C@@H]1CCC(C)=C[C@@H]21 [THCV, delta-9-tetrahydrocannabivarin]
Result: 3.63

Q: // same read-out, input: C=C(C)[C@@H]1CCC(C)=C[C@H]1c1c(O)cc(CCCCC)c(C(=O)O)c1O
Result: 1.70

Q: // same read-out, input: CCCCCc1cc(O)c2c(c1)OC(C)(C)c1ccc(C)cc1-2
Result: 2.79

Q: // same read-out, input: CCCCCc1cc(O)c2c(c1)OC(C)(CCC=C(C)C)C=C2 (stereo not drawn)
Result: 0.308

Q: // same read-out, input: CCCCCc1cc(O)c(C/C=C(\C)CCC=C(C)C)c(O)c1
Result: 4.80

Q: // same read-out, input: CCCCCc1cc(O)c2c(c1)OC(C)(C)[C@@H]1CCC(C)=C[C@@H]21 [D9 THC, delta-9-tetrahydrocannabinol, reference compound]
Result: 12.1

The measurements presented in this section are drawn from patent US20260130395A1.
